assay: in vitro; conditions: mouse, microsomes, pH 7.4, Microsome T1/2
Parameter: half-life. Scope: all listed entries.
measured property: half-life

compound	value measured
[2H]C([2H])(c1cc(Cl)ccc1N)N1CCN(C(=O)CNC(=O)CC2CCC(F)(F)CC2)CC1 [Compound 1412]	8.7 to 13 min
[2H]C([2H])(c1cc(Cl)ccc1N)N1CCN(C(=O)CNC(=O)C2CC23CCC(F)(F)CC3)CC1 (centres unmarked) [Compound 1413]	1.4 to 2 min

====

test system: vesicular stomatitis virus particles (VSV) pseudotyped with EboV Zaire GP; assay: microbe, parasite or virus in culture; assay type: cell-based; conditions: Vesicular stomatitis virus
Just a reminder that ties go to false (0): only IC50 strictly below 0.5 µM counts as true (1).

compound	label value
O=C(CC12CC3CC(CC(C3)C1)C2)NCC(=O)N1CCN(Cc2cc(Br)cc([N+](=O)[O-])c2)CC1 [Compound 1340]	false (0)
CS(=O)(=O)c1ccc(COc2ccc(Cl)cc2CN2CCN(C(=O)CNC(=O)CC3CCC(F)(F)CC3)CC2)cc1 [Compound 1458]	true (1)
[2H]C([2H])(c1cc(Cl)ccc1NCc1ccc(F)cn1)N1CCN(C(=O)CNC(=O)[C@@H]2CC23CCC(F)(F)CC3)CC1 [Compound 1582]	true (1)
O=C(CC1CCC(F)(F)CC1)NCC(=O)N1CCN(Cc2cc(Cl)cc3cn[nH]c23)CC1 [Compound 1406]	true (1)
COC(=O)c1ccc(COc2ccccc2CN2CCN(C(=O)CNC(=O)C3CCC(F)(F)CC3)CC2)cc1 [Compound 1298]	false (0)
O=C(CC12CC3CC(CC(C3)C1)C2)NCC(=O)N1CCN(Cc2cc(Cl)cc(F)c2F)CC1 [Compound 1327]	false (0)
NC(=O)c1ccc(COc2ccccc2CN2CCN(C(=O)CNC(=O)CC34CC5CC(CC(C5)C3)C4)CC2)cc1 [Compound 1260]	false (0)
Nc1cc(OCc2ccc(Br)cc2)c(CN2CCN(C(=O)CNC(=O)CC34CC5CC(CC(C5)C3)C4)CC2)cc1Cl [Compound 1252]	false (0)
COc1ccc(Cl)cc1CN1CCN(C(=O)CNC(=O)CC2CCC(F)(F)CC2)CC1 [Compound 1384]	true (1)
Nc1ccc(CN2CCN(C(=O)CNC(=O)CC3CCC(F)(F)CC3)CC2)cc1Cl [Compound 1387]	false (0)
[2H]C([2H])(c1cc(Cl)ccc1NCc1ccc(S(C)(=O)=O)c(F)c1)N1CCN(C(=O)CNC(=O)[C@@H]2CC23CCC(F)(F)CC3)CC1 [Compound 1561]	true (1)
N#Cc1ccc(Br)cc1CN1CCN(C(=O)CNC(=O)CC23CC4CC(CC(C4)C2)C3)CC1 [Compound 1329]	true (1)
Nc1ccc(CN2CCN(C(=O)CNC(=O)CC34CC5CC(CC(C5)C3)C4)CC2)cc1Cl [Compound 1250]	false (0)
O=C(CC1CCC(F)(F)CC1)NCC(=O)N1CCN(Cc2cc(Cl)ccc2OC(F)(F)F)CC1 [Compound 1372]	false (0)

Origin of values: patent US11629139B2
